Listing: EC50 of selected binders
EXPERIMENTAL TARGET: T1, human ROR1 (full-length, on the cell surface) (human, UniProt Q01973 30-937)
T1 construct: whole, on cells; the tumour cell lines carry their own ROR1; also called Ba/F3-ROR1 cells; Jeko-1
T1 sequence (Q01973 30-937): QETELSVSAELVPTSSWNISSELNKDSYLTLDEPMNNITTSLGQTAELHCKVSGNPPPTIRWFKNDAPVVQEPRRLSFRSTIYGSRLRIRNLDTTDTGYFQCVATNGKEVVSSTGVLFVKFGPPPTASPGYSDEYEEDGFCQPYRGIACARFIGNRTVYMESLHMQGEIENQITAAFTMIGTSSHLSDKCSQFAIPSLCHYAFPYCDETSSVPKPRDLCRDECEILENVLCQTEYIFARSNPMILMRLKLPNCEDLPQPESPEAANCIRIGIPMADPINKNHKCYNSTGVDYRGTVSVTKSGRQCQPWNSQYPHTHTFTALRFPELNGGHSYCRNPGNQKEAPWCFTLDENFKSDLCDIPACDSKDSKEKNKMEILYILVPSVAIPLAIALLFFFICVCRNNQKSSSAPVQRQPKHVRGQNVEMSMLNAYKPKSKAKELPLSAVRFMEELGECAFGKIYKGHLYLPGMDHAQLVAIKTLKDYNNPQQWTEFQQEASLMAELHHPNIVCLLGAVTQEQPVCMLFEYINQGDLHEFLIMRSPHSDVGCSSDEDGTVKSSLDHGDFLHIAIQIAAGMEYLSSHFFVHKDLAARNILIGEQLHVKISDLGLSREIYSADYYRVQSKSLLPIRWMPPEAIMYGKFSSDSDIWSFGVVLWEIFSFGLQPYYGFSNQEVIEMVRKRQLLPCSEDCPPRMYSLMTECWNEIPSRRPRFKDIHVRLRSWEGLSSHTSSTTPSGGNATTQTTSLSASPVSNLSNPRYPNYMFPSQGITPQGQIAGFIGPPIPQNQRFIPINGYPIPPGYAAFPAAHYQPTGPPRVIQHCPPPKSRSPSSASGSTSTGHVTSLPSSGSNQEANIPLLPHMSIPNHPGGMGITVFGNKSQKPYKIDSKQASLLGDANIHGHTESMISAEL
TEST SUMMARY: flow cytometry, Jeko-1 cells
Please state the figure in nM; there is no need to write the unit.

Check out these entries, answers already filled in.
BINDER	EC50, nM
3D8-Hu46 (antibody, human IgG1, kappa, V domains shown, humanized, human IgG1 / kappa) VH: EVQLVESGGGLVQPGGSLRLSCAASGFTFSSYAMSWVRQAPGKGLEWVSSINSGGSTYYPDSVKGRFTISRDNSKNTLYLQMNSLRAEDTAVYYCARVNYYGYGDYAMDYWGQGTLVTVSS VL: DIQMTQSPSSLSASVGDRVTITCQASQDINSYLSWFQQKPGKSPKTLIYRANRLVTGVPSRFSGSGSGTDYTFTISSLQPEDIATYYCLQYDEFPYTFGGGTKLEIKR	0.08
19F6-Hu13 (antibody, human IgG1, kappa, V domains shown, humanized, human IgG1 / kappa) VH: QVQLQESGPGLVKPSETLSLTCTVTGYSITSDYAWNWIRQPPGKGLEWMGYISYSGSIRYKPSLKDRITISRDTSKNQFSLKLSSVTAADTAVYYCARGEITYYFDYWGQGTLVTVSS VL: DIQMTQSPSSLSASVGDRVTITCRASTDIDDDMNWYQQKPGKAPKLLIYEGNTLQSGVPSRFSGSGYGTDFTLTISSLQPEDFATYYCLQSNDLPLTFGQGTKLEIKR	0.17
3D8-HuC94 (antibody, human IgG1, kappa, V domains shown, humanized, human IgG1 / kappa) VH: EVQLVESGGGLVQPGGSLRLSCAASGFTFSSYAMSWVRQAPEKRLEWVSSISNGGSTYYPDSVKGRFTISRDNSKNTLYLQMNSLRAEDTAVYYCARVNYYGYGDYAMDYWGQGTLVTVSS VL: DIQMTQSPSSLSASVGDRVTITCQASQDISNYLTWFQQKPGKSPKTLIHRANRLVTGVPSRFSGSGSGTDFTFTISSLQPEDIATYYCLQYDEFPYTFGGGTKVEIKR	0.06
38F8-Hu18 (antibody, human IgG1, kappa, V domains shown, humanized, human IgG1 / kappa) VH: EVQLVESGGGLVQPGGSLRLSCTASGFTFSNYAMSWVRQAPGKGLEWVASISSGGPTYYADSVKGRFTVSRDNSRNTLYLQMNSLRAEDTAVYYCARGYRYDVNWYFDVWGRGTLVTVSS VL: DIQMTQSPSSLSASVGDRVTITCQASQDINSYLTWFQQKPGKSPKTLIHRANRLVTGVPSRFSGSGSGTDYTFTISSLQPEDIAIYYCLQYDEFPYTFGGGTKVEIKR	0.11
38F8-Hu67 (antibody, human IgG1, kappa, V domains shown, humanized, human IgG1 / kappa) VH: QVQLVESGGGLVKPGGSLRLSCAASGFTFSNYAMSWVRQAPEKRLEWVASISSGGPTYYPDSVKGRFTISRDNAKNSLYLQMNSLRAEDTAVYYCARGYRYDVNWYFDVWGAGTMVTVSS VL: DIQMTQSPSSLSASVGDRVTITCQASQDISNYLTWFQQKPGKSPKTLIHRANRLVTGVPSRFSGSGSGTDYTFTISSLQPEDIAIYYCLQYDEFPYTFGGGTKVEIKR	0.1

What does the record list as EC50 for 19F6-Hu33 (antibody, human IgG1, kappa, V domains shown, humanized, human IgG1 / kappa) VH: QVQLQESGPGLVKPSQTLSLTCTVSGYSITSDYAWNWIRQFPGKGLEWIGYISYSGSIRYNPSLKSRVTISRDTSKNQFSLKLSSVTAADTAVYYCARGEITYYFDYWGQGTLVTVSS VL: DIQMTQSPSSLSASVGDRVTITCRASTDIDDDMNWYQQKPGKAPKLLIYEGNTLQSGVPSRFSGSGYGTDFTLTISSLQPEDFATYYCLQSNDLPLTFGQGTKLEIKR ? 0.15

Quick one: EC50 for 38F8-Hu68 (antibody, human IgG1, kappa, V domains shown, humanized, human IgG1 / kappa) VH: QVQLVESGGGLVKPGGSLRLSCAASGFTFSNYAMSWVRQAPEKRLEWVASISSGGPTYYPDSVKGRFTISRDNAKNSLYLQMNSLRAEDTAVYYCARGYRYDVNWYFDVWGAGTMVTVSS VL: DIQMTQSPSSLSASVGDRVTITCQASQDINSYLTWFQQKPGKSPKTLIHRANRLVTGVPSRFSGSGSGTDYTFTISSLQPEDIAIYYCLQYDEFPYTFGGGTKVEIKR ? 0.11
